Assay: Apparent permeability in human Caco-2 cells incubated for 2 hrs by LC/MS analysis
experimentalReadout: Papp at 2 h (×10⁻⁶ cm/s)

These solved cases illustrate the format of a correct answer.
INSERT INTO results (structure, experimentalreadout, unitstring, number) VALUES
  ('Cc1ccc(CC(=O)N[C@H](c2ccc(C)c(OCC(C)C)c2)[C@@H](C)C(=O)O)cc1', 'Papp at 2 h', '×10⁻⁶ cm/s', 26),
  ('Cc1ccc(CC(=O)N[C@H](c2ccc(C)c(OCC3(C#N)CC3)c2)[C@@H](C)C(=O)O)cc1', 'Papp at 2 h', '×10⁻⁶ cm/s', 0.62),
  ('Cc1ccc(CC(=O)N[C@H](c2ccc(C)c(OCc3ccccc3)c2)[C@@H](C)C(=O)O)cc1', 'Papp at 2 h', '×10⁻⁶ cm/s', 21),
  ('Cc1ccc([C@@H](NC(=O)Cc2ccc(Cl)cc2)[C@@H](C)C(=O)O)cc1OCC(C)(C)C#N', 'Papp at 2 h', '×10⁻⁶ cm/s', 1.2);

P. Cc1ccc(CC(=O)N[C@H](c2ccc(C)c(OCC(C)(C)C#N)c2)[C@@H](C)C(=O)O)cc1
Q. Cc1ccc([C@@H](NC(=O)Cc2ccc(Cn3ccccc3=O)cc2)[C@@H](C)C(=O)O)cc1
R. Cc1ccc([C@@H](NC(=O)Cc2ccc(CC3CC3)cc2)[C@@H](C)C(=O)O)cc1
Req: Sort low-to-high on Papp at 2 h, please. Respond with an ordered listing of the labels, as requested.
Resp: Q, P, R
(Q: 0.16 ×10⁻⁶ cm/s, P: 1.4 ×10⁻⁶ cm/s, R: 15 ×10⁻⁶ cm/s)

I. Cc1ccc([C@@H](NC(=O)Cc2ccc(CC3CCCCC3)cc2)[C@@H](C)C(=O)O)cc1
II. Cc1ccc([C@@H](NC(=O)Cc2ccc(Cc3cc(C)ccn3)cc2)[C@@H](C)C(=O)O)cc1.Cl
Req: For the two items I and II , which reports the higher Papp at 2 h value? # reply format: chosen label
Resp: I
